# measurement description: In vivo biodistribution and clearance in PC-3 tumor-bearing mice
# run conditions: male, NMRI-Foxn1 nu/nu, mouse, PC-3 tumor, iv, total radioactivity; 1 h p.i., i.v.; read-out: % uptake PC-3 tumor

{"compound": "CC(C)C[C@H](NC(=O)C[C@H](O)[C@H](CC(C)C)NC(=O)[C@H](Cc1c[nH]cn1)NC(=O)CNC(=O)[C@@H](NC(=O)[C@H](C)NC(=O)[C@H](Cc1c[nH]c2ccccc12)NC(=O)[C@H](CCC(N)=O)NC(=O)[C@@H](Cc1ccccc1)NC(=O)CN1CCC(NC(=O)CN2CCN(CC(=O)O)CCN(CC(=O)O)CCN(CC(=O)O)CC2)CC1)C(C)C)C(N)=O [[^177Lu]Lu-RM2, metal not drawn]", "tissue uptake at 1 h (%ID/g)": 9.27}
{"compound": "CC(C)CC(CC(C)C)NC(=O)[C@H](Cc1cnc[nH]1)NC(=O)CNC(=O)[C@@H](NC(=O)[C@H](C)NC(=O)[C@H](Cc1c[nH]c2ccccc12)NC(=O)[C@H](CCC(N)=O)NC(=O)[C@@H](Cc1ccccc1)NC(=O)COCC(=O)Nc1ccc(CNC(=O)CN2CCN(CC(=O)O)CCN(CC(=O)O)CCN(CC(=O)O)CC2)cc1)C(C)C [[^177Lu]Lu-NeoB, metal not drawn]", "tissue uptake at 1 h (%ID/g)": 9.38}

* * *

# measurement description: In vivo biodistribution and clearance in PC-3 tumor-bearing mice
# run conditions: male, NMRI-Foxn1 nu/nu, mouse, prostate, iv, total radioactivity; 72 h p.i., i.v.; read-out: % uptake prostate
experimental readout: tissue uptake at 72 h (%ID/g)

{"compound": "CC(C)C[C@H](NC(=O)C[C@H](O)[C@H](CC(C)C)NC(=O)[C@H](Cc1c[nH]cn1)NC(=O)CNC(=O)[C@@H](NC(=O)[C@H](C)NC(=O)[C@H](Cc1c[nH]c2ccccc12)NC(=O)[C@H](CCC(N)=O)NC(=O)[C@@H](Cc1ccccc1)NC(=O)CN1CCC(NC(=O)CN2CCN(CC(=O)O)CCN(CC(=O)O)CCN(CC(=O)O)CC2)CC1)C(C)C)C(N)=O [[^177Lu]Lu-RM2, metal not drawn]", "experimental readout": "tissue uptake at 72 h", "unit annotation": "%ID/g", "number": 0.01}
{"compound": "CC(C)CC(CC(C)C)NC(=O)[C@H](Cc1cnc[nH]1)NC(=O)CNC(=O)[C@@H](NC(=O)[C@H](C)NC(=O)[C@H](Cc1c[nH]c2ccccc12)NC(=O)[C@H](CCC(N)=O)NC(=O)[C@@H](Cc1ccccc1)NC(=O)COCC(=O)Nc1ccc(CNC(=O)CN2CCN(CC(=O)O)CCN(CC(=O)O)CCN(CC(=O)O)CC2)cc1)C(C)C [[^177Lu]Lu-NeoB, metal not drawn]", "experimental readout": "tissue uptake at 72 h", "unit annotation": "%ID/g", "number": 0.01}

* * *

# measurement description: In vivo biodistribution and clearance in PC-3 tumor-bearing mice
# run conditions: male, NMRI-Foxn1 nu/nu, mouse, PC-3 tumor, iv, total radioactivity; 4 h p.i., i.v.; read-out: % uptake PC-3 tumor
experimental readout: tissue uptake at 4 h (%ID/g)

{"molecule": "CC(C)CC(CC(C)C)NC(=O)[C@H](Cc1cnc[nH]1)NC(=O)CNC(=O)[C@@H](NC(=O)[C@H](C)NC(=O)[C@H](Cc1c[nH]c2ccccc12)NC(=O)[C@H](CCC(N)=O)NC(=O)[C@@H](Cc1ccccc1)NC(=O)COCC(=O)Nc1ccc(CNC(=O)CN2CCN(CC(=O)O)CCN(CC(=O)O)CCN(CC(=O)O)CC2)cc1)C(C)C [[^177Lu]Lu-NeoB, metal not drawn]", "experimental readout": "tissue uptake at 4 h", "number": 9.98}
{"molecule": "CC(C)C[C@H](NC(=O)C[C@H](O)[C@H](CC(C)C)NC(=O)[C@H](Cc1c[nH]cn1)NC(=O)CNC(=O)[C@@H](NC(=O)[C@H](C)NC(=O)[C@H](Cc1c[nH]c2ccccc12)NC(=O)[C@H](CCC(N)=O)NC(=O)[C@@H](Cc1ccccc1)NC(=O)CN1CCC(NC(=O)CN2CCN(CC(=O)O)CCN(CC(=O)O)CCN(CC(=O)O)CC2)CC1)C(C)C)C(N)=O [[^177Lu]Lu-RM2, metal not drawn]", "experimental readout": "tissue uptake at 4 h", "number": 9.14}
